Test: Single ascending-dose (SAD) study, plasma pharmacokinetics
Type: in vivo, human
Conditions: both sexes, human, plasma, oral; SAD single dose 40 mg, N = 8, mean (SD); read-out: Vz/F
RECORDED_METRIC: Vd/F

>>> result_value("Cc1nc(-c2cnc(N3CCN(CCCc4c[nH]c5ccc(C#N)cc45)CC3)nc2)sc1C(N)=O [HEC113995PA·H2O]")
"661 L"

====

Assay: Multiple ascending-dose (MAD) study, plasma pharmacokinetics
Format: in vivo, human
Details: both sexes, human, plasma, oral, 10 mg, MAD D10; 10 mg dose group; median (min, max)
RECORDED_METRIC: Tmax at 10 days (h)

>>> result_value("Cc1nc(-c2cnc(N3CCN(CCCc4c[nH]c5ccc(C#N)cc45)CC3)nc2)sc1C(N)=O [HEC113995PA·H2O]")
4.5
